- Target system: GDP-bound KRAS wild-type protein (Homo sapiens, UniProt P01116)
- Sequence (P01116 whole entry): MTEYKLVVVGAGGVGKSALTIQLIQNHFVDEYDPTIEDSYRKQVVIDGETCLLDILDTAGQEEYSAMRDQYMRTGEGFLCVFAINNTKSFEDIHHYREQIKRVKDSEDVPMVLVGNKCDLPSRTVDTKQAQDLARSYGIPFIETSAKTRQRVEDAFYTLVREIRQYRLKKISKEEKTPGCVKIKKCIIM
- Experimental protocol: Binding to KRAS by surface plasmon resonance (SPR), Single Cycle Kinetics
- Protocol conditions: SPR Single Cycle Kinetics, GDP-bound KRAS wild-type protein, 1:1 binding model; read-out: KRAS KD
Where a SMILES comes first, the peptide text is derived from it. Bridges are numbered along the chain shown (N, C = ends). [ ]: non-standard residue; d: D form. hPhe(3,5-F2-4-CF3) = N[C@@H](CCc1cc(F)c(C(F)(F)F)c(F)c1)C(=O)O; NPrPhe(4-CF3) = CCCN[C@@H](Cc1ccc(C(F)(F)F)cc1)C(=O)O; NMeGly(cPent) = CN[C@H](C(=O)O)C1CCCC1; NMeD = CN[C@@H](CC(=O)O)C(=O)O; Ac4c(3-oxa) = NC1(C(=O)O)COC1; NMeL = CN[C@@H](CC(C)C)C(=O)O; Sar = CNCC(=O)O
Test readout: pKd
Please keep in mind that pKd is minus log10 of the molar concentration; only the number is needed.

Could you share which pKd value was measured for CCO[C@@H]1C[C@H]2C(=O)NC3(CCC3)C(=O)N(C)[C@@H](C3CCCC3)C(=O)N(CCC3CCCC3)[C@H](C(=O)N3CCOCC3)CC(=O)N(C)[C@@H](CC(C)C)C(=O)N[C@@H]([C@@H](C)CC)C(=O)N(C)CC(=O)N(C)[C@H]3CCCCN(C3=O)[C@@H](Cc3ccc(C(F)(F)F)cc3)C(=O)N(C)CC(=O)N[C@@H](CCc3cc(F)c(C(F)(F)F)c(F)c3)C(=O)N2C1 ?
9.22

Could you share which pKd value was measured for CCCN1C(=O)CN(C)C(=O)CN(C)C(=O)[C@H]([C@@H](C)CC)NC(=O)[C@H](CC(C)C)N(C)C(=O)C[C@@H](C(=O)N(C)C)N(C)C(=O)[C@H](C2CCCC2)N(C)C(=O)C2(COC2)NC(=O)[C@@H]2CCCN2C(=O)[C@H](CCc2cc(F)c(C(F)(F)F)c(F)c2)NC(=O)CN(C)C(=O)[C@@H]1Cc1ccc(C(F)(F)F)cc1 [PP0744] ([NMeL]I[Sar][Sar][NPrPhe(4-CF3)][Sar][hPhe(3,5-F2-4-CF3)]P[Ac4c(3-oxa)][NMeGly(cPent)][NMeD]-NMe2; lactam N-11) ?
10.22

Could you share which pKd value was measured for CCC[C@H]1C(=O)N[C@@H](CC(C)C)C(=O)N(C2CC2)CC(=O)N(C)[C@H]2C/C=C\CCN(C2=O)[C@@H](Cc2ccc(C)cc2)C(=O)N(C)CC(=O)N[C@@H](CCc2ccc(C(F)(F)F)c(OC)c2)C(=O)N2C[C@H](OCC)C[C@H]2C(=O)NC2(CCC2)C(=O)N(C)[C@@H](C2CCCC2)C(=O)N(C)[C@H](C(=O)N(C)C)CC(=O)N1C ?
8.39

###

- Target system: GDP-bound KRAS wild-type protein (Homo sapiens, UniProt P01116)
- Experimental protocol: Binding to KRAS by surface plasmon resonance (SPR), Single Cycle Kinetics
- Protocol conditions: SPR, Single Cycle Kinetics, GDP-bound KRAS wild-type protein; read-out: KRAS KD
Give measured pKd for each item. Keep answers brief.
Please keep in mind that pKd is minus log10 of the molar concentration; only the number is needed.

Could you share which pKd value was measured for CCO[C@@H]1C[C@H]2C(=O)NC3(CC(C)(C)C3)C(=O)N(C)[C@@H](C3CCCC3)C(=O)N(C)[C@H](C(=O)N(CC)CC)CC(=O)N(C)[C@@H](COC)C(=O)N[C@@H]([C@@H](C)CC)C(=O)N(C)CC(=O)N(C)[C@H]3C/C=C\CCN(C3=O)[C@@H](Cc3ccc(C)cc3)C(=O)N(C)CC(=O)N[C@@H](CCc3ccc(C(F)(F)F)c(Cl)c3)C(=O)N2C1 ?
9.70

Could you share which pKd value was measured for CCO[C@@H]1C[C@H]2C(=O)NC3(CCC3)C(=O)N(C)[C@@H](C3CCCC3)C(=O)N(C)[C@H](C(=O)N3CCCCC3)CC(=O)N(C)[C@H]3CCCCCCc4ccc(cc4)C[C@@H](C(=O)N(C)CC(=O)N[C@@H](CCc4ccc(C(F)(F)F)c(OC)c4)C(=O)N2C1)N1CC/C=C\C[C@@H](C1=O)N(C)C(=O)CN(C)C(=O)[C@H]([C@@H](C)CC)NC3=O ?
9.74

Could you share which pKd value was measured for CCO[C@@H]1C[C@H]2C(=O)NC3(CC(C)(C)C3)C(=O)N(C)[C@@H](C3CCCC3)C(=O)N(C)[C@H](C(=O)N(C)C)CC(=O)N3CCCCC[C@H]3C(=O)N[C@@H]([C@@H](C)CC)C(=O)N(C)CC(=O)N(C)[C@H]3C/C=C\CCN(C3=O)[C@@H](Cc3ccc(C(F)(F)F)cc3)C(=O)N(C)CC(=O)N[C@@H](CCc3cc(F)c(C(F)(F)F)c(F)c3)C(=O)N2C1 ?
9.51
